Attribution: patent US20040072992A1

Field: MIC. Provide a value for each of the substances that follow.
- Test system: E. coli JCM1649
- condition_details: JCM1649, 18 h
Where no end group is shown, it is not given here.

Value (MIC, E. coli JCM1649) for record KVLALRL [KVL+, KVL ALRL] = >200 µM

The value of MIC recorded for RVGINWKGIAAMAKKII [RVG-mastX, RVG INWKGIAAMAKKII] when tested on E. coli JCM1649 reads >200 µM

Record KVLKVLKVL [KVL3, KVLKVLKVL] / E. coli JCM1649, MIC recorded as >200 µM
